- system-under-test: Ca2+ channel (L, DHP site); voltage-gated L-type calcium channel (Homo sapiens, UniProt O60840+Q01668+Q13698+Q13936)
- run-description: Ca2+ channel (L, DHP site) CEREP ligand profiling
- Format: protein assay
- run-conditions: compound concentration 10 uM
quantity: inhibition at 10 µM

## Task Returns the measured inhibition at 10 µM for the input molecule. Input: "O=C(Nc1cccnn1)N1CCC(=Cc2cccc(Oc3ccc(C(F)(F)F)cn3)c2)CC1"
## Result 11% (not active)

----------
- system-under-test: Ca2+ channel (L, diltiazem site) (benzothiazepines); voltage-gated L-type calcium channel (Homo sapiens, UniProt O60840+Q01668+Q13698+Q13936)
- run-description: Ca2+ channel (L, diltiazem site) (benzothiazepines) CEREP ligand profiling
- Type: protein assay
- run-conditions: compound concentration 10 uM
quantity: inhibition at 10 µM

## Task Returns the measured inhibition at 10 µM for the input compound. Input: "O=C(Nc1cccnn1)N1CCC(=Cc2cccc(Oc3ccc(C(F)(F)F)cn3)c2)CC1"
## Result 1% (not active)

----------
- system-under-test: Cannabinoid receptor 1 (Homo sapiens)
- Sequence (P21554 whole entry): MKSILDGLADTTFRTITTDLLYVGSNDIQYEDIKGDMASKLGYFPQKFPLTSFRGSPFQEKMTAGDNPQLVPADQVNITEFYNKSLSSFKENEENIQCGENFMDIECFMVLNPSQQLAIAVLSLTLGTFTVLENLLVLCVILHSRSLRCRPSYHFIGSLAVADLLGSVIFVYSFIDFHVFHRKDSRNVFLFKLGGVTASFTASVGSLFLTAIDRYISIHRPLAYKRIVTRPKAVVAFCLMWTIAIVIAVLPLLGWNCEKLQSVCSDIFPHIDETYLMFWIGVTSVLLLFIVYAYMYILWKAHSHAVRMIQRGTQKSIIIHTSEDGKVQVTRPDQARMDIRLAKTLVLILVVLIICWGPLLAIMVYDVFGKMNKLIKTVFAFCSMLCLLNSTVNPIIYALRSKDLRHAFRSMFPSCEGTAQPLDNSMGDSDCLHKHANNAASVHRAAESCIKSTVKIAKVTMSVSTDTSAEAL
quantity: Ki (µM)
Value expressed in µM; do not type the unit.

## Task Returns the measured Ki for the input compound. Input: "O=C(Nc1cccnn1)N1CCC(=Cc2cccc(Oc3ccc(C(F)(F)F)cn3)c2)CC1"
## Result 14

----------
- system-under-test: MAO-A (Amine oxidase [flavin-containing] A) (Homo sapiens)
- Sequence (P21397 whole entry): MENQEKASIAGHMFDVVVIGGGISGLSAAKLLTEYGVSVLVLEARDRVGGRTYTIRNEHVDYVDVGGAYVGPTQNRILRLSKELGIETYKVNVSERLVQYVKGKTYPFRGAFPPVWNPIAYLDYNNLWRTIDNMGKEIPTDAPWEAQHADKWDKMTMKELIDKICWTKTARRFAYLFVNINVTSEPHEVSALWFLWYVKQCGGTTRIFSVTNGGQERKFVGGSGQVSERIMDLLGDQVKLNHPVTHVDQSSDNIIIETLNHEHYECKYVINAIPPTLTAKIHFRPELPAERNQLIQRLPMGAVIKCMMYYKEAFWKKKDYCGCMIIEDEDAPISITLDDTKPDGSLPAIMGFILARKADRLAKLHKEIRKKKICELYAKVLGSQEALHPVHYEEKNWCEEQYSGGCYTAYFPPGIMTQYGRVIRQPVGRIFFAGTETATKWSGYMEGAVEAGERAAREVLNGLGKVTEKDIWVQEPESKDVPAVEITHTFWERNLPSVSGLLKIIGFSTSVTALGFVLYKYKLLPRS
- run-description: MAO-A CEREP ligand profiling
- run-conditions: compound concentration 10 uM
quantity: inhibition at 10 µM

## Task Returns the measured inhibition at 10 µM for the input compound. Input: "O=C(Nc1cccnn1)N1CCC(=Cc2cccc(Oc3ccc(C(F)(F)F)cn3)c2)CC1"
## Result 13% (not active)

----------
- system-under-test: Na+ channel (site 2); sodium channel alpha subunit (Homo sapiens, UniProt P35498+P35499+Q01118+Q14524+Q15858+Q99250+Q9NY46+Q9UI33+Q9UQD0+Q9Y5Y9)
- run-description: Na+ channel (site 2) CEREP ligand profiling
- Type: protein assay
- run-conditions: compound concentration 10 uM
quantity: inhibition at 10 µM

## Task Returns the measured inhibition at 10 µM for the input compound. Input: "O=C(Nc1cccnn1)N1CCC(=Cc2cccc(Oc3ccc(C(F)(F)F)cn3)c2)CC1"
## Result 13% (not active)
